Protocol Text: qHTS assay to identify small molecule agonists of the TGF-beta/Smad signaling pathway - cell viability counter screen (AID 1346829); note: top concentration of the series differs between compounds; nearly all actives have a fitted effect of over 45% in size
Applied Conditions: SBE-bla HEK293T viability, CellTiter-Glo luminescence, 5 h; series mostly up to 76.8 µM
Results filed as inconclusive are left out. Calls of active or inactive are those of the source. Calls come from the whole dose curve; as a rule, active = well fitted cell-killing curve with a large enough effect in the repeat runs; inconclusive = weak or mixed curves, or effect the other way; inactive = flat fitted curve, though single readings scatter.
Endpoint Label: activity change, negative = cytotoxicity

In the examples that follow, each entry is paired with its recorded activity change, negative = cytotoxicity.
Q: Can you look up the measured activity change, negative = cytotoxicity of "CCn1nc(C(=O)O)c(=O)c2cc3c(cc21)OCO3" for me?
Result: inactive

Q: Now try "CC(=O)Nc1ccc(S(N)(=O)=O)cc1" .
Result: inactive

Q: Now try N#Cc1ccc(C2CCCc3cncn32)cc1 (stereo not drawn) .
Result: inactive

Q: Now try "CS(=O)(=O)O" .
Result: inactive

Further cases:
Q: Can you look up the measured activity change, negative = cytotoxicity of "C=CCCCCCCCCC=O" for me?
Result: inactive

Q: Now try COc1ccccc1OCC(O)CN1CCN(CC(=O)Nc2c(C)cccc2C)CC1 (stereo not drawn) .
Result: inactive

Q: Now try "CCCCOCCOCCOCCCC" .
Result: inactive

Q: Now try COc1ccc(CCN(C)CCCC(C#N)(c2cc(OC)c(OC)c(OC)c2)C(C)C)cc1OC (stereo not drawn) .
Result: inactive
